# reported IC50; entries follow
- assayTarget: Human immunodeficiency virus type 1 reverse transcriptase (Human immunodeficiency virus 1, UniProt Q72547)
- settings: read-out: IC50 (converted)
Where a name gives a salt, the structure may show the parent alone.

Examples from the recorded data:
compound: COc1cc(C[C@H]2c3cc(OC)c(OC)cc3CCN2C)c(Oc2cc3c(cc2OC)-c2c(OC)c(OC)cc4c2[C@H](C3)N(C)CC4)cc1OC
IC50: > 287 µM
--
compound: C/C=C1/C[N+]2(C)CC[C@@]34c5ccccc5N[C@]32CCC1C4(CO)C(=O)OC (some centres not stated) [ECHITAMINE CHLORIDE]
IC50: > 494 µM
--
compound: COc1cc2c3cc1Oc1cc(ccc1O)C[C@@H]1c4c(cc(OC)c(O)c4Oc4ccc(cc4)C[C@@H]3N(C)CC2)CC[N+]1(C)C
IC50: > 310 µM
--
compound: C1CCN2C[C@@H]3C[C@@H](CN4CCCC[C@@H]34)[C@H]2C1 [SPARTEINE SULFATE]
IC50: > 473 µM
--
compound: COc1c2occc2c(OC)c2c(=O)cc(C)oc12
IC50: > 769 µM

INPUT: Look up IC50: `COc1cc2c(ccc3c4cc(OC)c(OC)cc4c[n+](C)c23)cc1O`
OUTPUT: 46.7 µM

INPUT: Also `COC(=O)C1=CO[C@H](C)[C@@H]2CN3CCc4c([nH]c5ccccc45)[C@@H]3C[C@H]12` ?
OUTPUT: > 567 µM

INPUT: Also C=C1C[C@@]23CC[C@H]4[C@@](C)(CCC[C@@]4(C)C(=O)O[C@@H]4O[C@H](CO)[C@@H](O)[C@H](O)[C@H]4O)[C@@H]2CC[C@]1(O[C@@H]1O[C@H](CO)[C@@H](O)[C@H](O)[C@H]1O[C@@H]1O[C@H](CO)[C@@H](O)[C@H](O)[C@H]1O)C3 [STEVIOSIDE] ?
OUTPUT: > 248 µM

INPUT: Also `C/C=C(/C)C(=O)O[C@H]1CCN2CC=C(COC(=O)[C@](O)([C@H](C)OC)C(C)(C)O)[C@H]12` ?
OUTPUT: > 486 µM

INPUT: Also `O=c1oc2c(O)c(O)cc3c(=O)oc4c(O)c(O)cc1c4c23` ?
OUTPUT: < 496 µM

INPUT: Also `COc1cc2c(ccc3c4cc(OC)c(OC)cc4cnc23)cc1O` ?
OUTPUT: > 596 µM

INPUT: Also `CC[C@H]1CN2CCc3cc(OC)c(OC)cc3[C@@H]2C[C@@H]1C[C@H]1NCCc2c1[nH]c1ccc(O)cc21` ?
OUTPUT: > 420 µM

* * *

# reported IC50; entries follow
- assayTarget: Human immunodeficiency virus type 1 reverse transcriptase (Human immunodeficiency virus 1, UniProt Q72547)
- settings: read-out: IC50 (converted)
Where a name gives a salt, the structure may show the parent alone.

compound: COc1cc2c(c3c1c(=O)c1ccccc1n3C)CCC(C)(C)O2 [DIHYDROACRONYCINE]
value: > 618 µM
--
compound: O=C1C[C@]23C=CCN4CC[C@H]5c6cc7c(cc6N1[C@@]5(CC2)[C@@H]43)OCO7 [SCHIZOZYGINE]
value: > 595 µM
--
compound: COc1cc2c(c3c1c(=O)c1ccccc1n3C)C=CC(C)(C)O2 [ACRONINE]
value: > 622 µM
--
compound: CCC1=C[C@@H]2CN3CCc4c([nH]c5ccccc45)[C@](C(=O)OC)(C2)[C@@H]13 [CATHARANTHINE HYDROCHLORIDE]
value: > 536 µM
--
compound: Cc1c2ccncc2c(C)c2c1[nH]c1ccccc12 [ELLIPTECINE]
value: < 609 µM

INPUT: Look up IC50: CN1Cc2c(ccc3c2OCO3)[C@@H]2[C@H]1c1cc3c(cc1C[C@@H]2O)OCO3 [CHELIDONINE]
OUTPUT: < 566 µM

INPUT: Also COc1ccc2c(c1OC)C[N+]1(C)CCc3cc4c(cc3C1C2)OCO4 (stereo not given) [CANADINE METHCHLORIDE] ?
OUTPUT: > 513 µM

INPUT: Also `COc1c2c(c(O)c3ccoc13)C(=O)[C@H]1c3cc4c(cc3OC[C@H]1O2)OCO4` ?
OUTPUT: > 523 µM

INPUT: Also C/C=C1/C(=O)O[C@]23C=C[C@@H]4C(C(=O)OC)=CO[C@H](O[C@@H]12)[C@@H]43 [PLUMERICIN] ?
OUTPUT: > 689 µM

INPUT: Also CC[C@H]1C[C@@H]2CN3CCc4c([nH]c5cc(OC)c(OC)cc45)[C@](C(=O)OC)(C2)[C@H]13 [CONOPHARYNGINE] ?
OUTPUT: > 502 µM
